Entries and their pEC50
Target: mAChR hM4 (Homo sapiens)
Experiment: mAChR M4 cell-based functional assay (calcium flux, potentiation of EC20 acetylcholine response)
Details: mAChR hM4 cell-line; >10,000 estimated for low potency compounds lacking a plateau
pEC50: −log10 of the molar value.

> print(dat)
                            chemical.smiles  endpoint.result
1      Cc1cc(C)c2c(C)c(C(=O)NC3CCOCC3)sc2n1           < 5.00
2  Cc1cc(C)c2c(-c3cnn(C)c3)c(C(=O)NCc3ccc4c(c3)CCO4)sc2n1           < 5.00

Q: Report measured pEC50 on mAChR hM4 (Homo sapiens); entry: `Cc1nc2sc(C(=O)NCc3cnn(-c4ccccc4)c3)c(-c3cnn(C)c3)c2c(C)c1Cl`
Ans: < 5.00

Q: Report measured pEC50 on mAChR hM4 (Homo sapiens); entry: `Cc1cc(C)c2c(C)c(C(=O)NCc3ccc(OC(F)(F)F)cc3)sc2n1`
Ans: < 5.00

====

Target: mAChR hM4 (Homo sapiens)
Test: mAChR M4 cell-based functional assay (calcium flux, potentiation of EC20 acetylcholine response)
Details: mAChR hM4 cell-line; >10,000 estimated for low potency compounds lacking a plateau
Measured Attribute: EC50 (µM)

Here's what some known entries look like.
> print(dat)
                                   compound  output.unit  endpoint.result
1    COc1ccc(CNC(=O)c2cc3c(C)cc(C)nc3s2)cc1           µM                4
2  Cc1cc(C)c2cc(C(=O)N3CC(c4ccccc4)C3)sc2n1           µM              2.4
3  CCc1c(C(=O)NCc2ccc(S(C)(=O)=O)cc2)sc2nc(C)cc(C)c12           µM              4.1

a. Cc1cc(C)c2c(Br)c(C(=O)NC3(C)COC3)sc2n1
b. Cc1nc2sc(C(=O)NC3CCS(=O)(=O)C3)c(C)c2c(C)c1Cl (stereo not shown)
Q: Quick check, higher EC50 between a and b ? Your answer should be the label of the entry you select.
Ans: a

P. Cc1nc2sc(C(=O)NC3COC3)c(Br)c2c(C)c1Cl [Compound 41]
Q. Cc1cc(C)c2c(Br)c(C(=O)N3CCCC3)sc2n1
R. Cc1cc(C)c2cc(C(=O)NC3CN(c4cccnc4)C3)sc2n1
S. COc1ccc(CNC(=O)c2cc3c(C)cc(C)nc3s2)cc1F
Q: Please give the order of these compounds when sorted by EC50, largest value leading. Rank them, then answer with their labels in that order.
Ans: S, Q, R, P
(S: 6.7 µM, Q: 3.9 µM, R: 1.2 µM, P: 0.53 µM)

====

Biological target: mAChR hM4 (Homo sapiens, UniProt P08173)
Sequence (P08173 1-479): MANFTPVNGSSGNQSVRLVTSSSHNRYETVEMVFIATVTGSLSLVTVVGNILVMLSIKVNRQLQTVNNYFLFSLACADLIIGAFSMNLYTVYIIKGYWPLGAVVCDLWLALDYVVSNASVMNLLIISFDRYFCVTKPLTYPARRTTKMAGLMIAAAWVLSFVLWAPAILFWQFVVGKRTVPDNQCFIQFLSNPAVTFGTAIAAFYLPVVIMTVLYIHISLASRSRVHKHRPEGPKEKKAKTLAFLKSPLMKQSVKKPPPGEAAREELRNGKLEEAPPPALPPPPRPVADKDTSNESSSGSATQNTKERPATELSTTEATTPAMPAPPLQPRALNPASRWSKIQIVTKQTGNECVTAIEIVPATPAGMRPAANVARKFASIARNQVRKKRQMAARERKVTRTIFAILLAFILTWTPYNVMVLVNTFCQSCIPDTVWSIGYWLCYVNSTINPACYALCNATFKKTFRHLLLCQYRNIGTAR
Test: mAChR M4 cell-based functional assay (calcium flux, potentiation of EC20 acetylcholine response)
Details: mAChR hM4 cell-line; >10,000 estimated for low potency compounds lacking a plateau
Measured Attribute: EC50

Here's what some known entries look like.
> print(dat)
                                   compound  measured.attribute  endpoint.result
1  Cc1cc(C)c2c(C)c(C(=O)NCc3ccc(S(C)(=O)=O)cc3)sc2n1                EC50           4.2 µM
2  Cc1nc2sc(C(=O)NC3C4CC5CC(C4)CC3C5)c(-c3cnn(C)c3)c2c(C)c1Cl (stereo not shown)                EC50          > 10 µM
3    Cc1nc2sc(C(=O)NCC3CCC3)c(Cl)c2c(C)c1Cl                EC50          > 10 µM

Consider now this further compound.
Q: Report measured EC50 on mAChR hM4 (Homo sapiens, UniProt P08173); entry: Cc1cc(C)c2c(-c3cnn(C)c3)c(C(=O)N3CCC(c4ccccc4)C3)sc2n1 (stereo not shown)
Ans: > 10 µM

Recorded values, source patent US20160200733A1.
